Source listed as paper PMC6155302.

system: SKMEL-28 cells; experiment: MTT cell viability assay, SKMEL-28 melanoma cells; type: cell-based, human; settings: Homo sapiens, SK-MEL-28, 24 h, with FBS (10% FBS), read-out: IC50 SKMEL-28 with FBS
measured.property: IC50

Consider the worked cases shown below.
Q: Form: Entry = Oc1ccc([C@@H]2c3c(O)cc(O)cc3[C@H]3[C@H](c4ccc(O)cc4)c4c(O)cc(O)cc4[C@@H]23)cc1 | System = SKMEL-28 cells | IC50 = ____
Result: > 100 µM

Q: API: value(readout=IC50, system=SKMEL-28 cells) for record Oc1ccc(/C=C/c2cc(O)cc(O)c2)cc1 [Trans-resveratrol, trans-resveratrol]
Result: > 100 µM

***
Q: Identify the measured IC50 of Oc1ccc(/C=C/c2cc(O)cc3c2[C@@H](c2cc(O)cc(O)c2)[C@H](c2ccc(O)cc2)O3)cc1 for SKMEL-28 cells.
Result: 86.6 µM

Q: Missing value: IC50, SKMEL-28 cells, entry Oc1ccc(C(O)C(Oc2ccc(C=Cc3cc(O)cc(O)c3)cc2)c2cc(O)cc(O)c2)cc1 (stereo not shown) . Fill in?
Result: > 100 µM

* * *

test system: HDF cells; assay: MTT cell viability assay, healthy human dermal fibroblasts; format: cell-based; settings: Homo sapiens, HDF, 24 h, with FBS (10% FBS), read-out: IC50 HDF with FBS
pIC50: −log10 of the molar value.
measured.property: pIC50

Some solved cases for reference:
Q: pIC50 lookup needed for Oc1ccc(C(O)C(Oc2ccc(C=Cc3cc(O)cc(O)c3)cc2)c2cc(O)cc(O)c2)cc1 (stereo not shown) , thanks.
Result: < 4.00

Q: What pIC50 value was documented for this compound, Oc1ccc(/C=C/c2cc(O)cc(O)c2)cc1 [Trans-resveratrol, trans-resveratrol] ?
Result: < 4.00

Q: pIC50 for Oc1ccc(/C=C/c2cc(O)cc3c2[C@@H](c2cc(O)cc(O)c2)[C@H](c2ccc(O)cc2)O3)cc1 ?
Result: 4.04

Further cases:
Q: Which pIC50 is reported for this compound? Oc1ccc([C@@H]2c3c(O)cc(O)cc3[C@H]3[C@H](c4ccc(O)cc4)c4c(O)cc(O)cc4[C@@H]23)cc1
Result: < 4.00

* * *

tested on: HT-144 cells; assay: MTT cell viability assay, HT-144 melanoma cells; format: cell-based, human; settings: Homo sapiens, HT-144, 24 h, without FBS (0% FBS), read-out: IC50 HT-144 without FBS
measured.property: IC50 (µM)

Q: What value of IC50 on HT-144 cells does Oc1ccc(/C=C/c2cc(O)cc3c2[C@@H](c2cc(O)cc(O)c2)[C@H](c2ccc(O)cc2)O3)cc1 have?
Result: 17.6

Q: Field: IC50 (HT-144 cells). Entry: Oc1ccc(C(O)C(Oc2ccc(C=Cc3cc(O)cc(O)c3)cc2)c2cc(O)cc(O)c2)cc1 (stereo not shown)
Result: 24.9
